Cited source: ChEMBL document CHEMBL1201862

- System: UO-31
- protocol: NCI tumour cell line growth inhibition, 48 h
Calls of active or inactive are those of the source. Cut-off read from the data, not from the text of the source: active = GI50 up to about 1.1 µM and inactive = higher.
Respond with a class label; see Y = active, N = inactive

Query: recorded result category for CCOc1ccccc1/N=N/C1C(=O)N(C(=O)CC(=O)Nc2ccccc2C)N=C1C (centres undefined) in this test N

Assay result, entry CCC(C)C1NC(=O)C(NC(=O)C(CC(C)C)N(C)C(=O)[C@@H]2C=CCN2C(=O)[C@H](C)O)C(C)OC(=O)[C@H](Cc2ccc(OC)cc2)N(C)C(=O)[C@@H]2CCCN2C(=O)[C@H](CC(C)C)NC(=O)C(C)C(=O)[C@H](C(C)C)OC(=O)CC1O (some centres undefined) — outcome? Y

Hi team, can someone confirm the assay call for CCOC(=O)c1ccc2nc3n(c2c1)C(c1c(F)cccc1F)SC3 (centres undefined) ? N

Query: recorded result category for CCOC(=O)/C=C(/OCC)[C@@H]1C(C(=O)c2ccc(Cl)cc2)[C@@H]1/C(=C\C(=O)OCC)OCC (some centres undefined) in this test N

// param item: CN(C)c1ccc(/C=C/c2ccc(S(N)(=O)=O)cc2)cc1 ; yields the recorded call N

Recorded test outcome, item NC1=NCN(C2OC(CO)C(O)C2O)C(=O)N1 (centres undefined) N

Please state the recorded outcome for this molecule: COC1CC(OC2CCC3(C)C(=CCC4C3C(OC(C)=O)C(OC(=O)CC(C)C)C3(C)C(C(C)=O)CCC43O)C2)OC(C)C1OC1CC(OC)C(OC2CC(OC)C(OC3OC(C)C(O)C(OC)C3O)C(C)O2)C(C)O1 (centres undefined) N

Each molecule tested received a call. Report the one for Cc1ccc(C)c2c1CC(Cc1ccccc1C(=O)O)C2=O (centres undefined) . N

Recorded test call requested for COc1ccc([Se][Se]c2ccc(OC)cc2OC)c(OC)c1 N

* * *

Give GI50 for every item shown.
- Tested on: DMS-273
- protocol: NCI tumour cell line growth inhibition, 48 h
Activity calls are given as the source filed them. Cut-off read from the data, not from the text of the source: active = GI50 up to about 1.1 µM and inactive = higher.

Response field GI50 (DMS-273) for item CNC1=C(C)C(=O)C(C)=C(C(C)(C)CC(=O)n2cc(F)c(=O)[nH]c2=O)C1=O : 23.1 µM (inactive)

Value sought: GI50, system DMS-273, item Cc1c(N(Cc2ccccc2)Cc2ccccc2)nc(S(C)(=O)=O)nc1S(C)(=O)=O . Result: 2.2 µM (inactive)

Reported GI50 (DMS-273) for entry CC(=O)OC1CCC2OOC1O2 (stereo unspecified) is > 100 µM (inactive)

Record O=C1C(=O)N(C2C3CC4CC(C3)CC2C4)C(=O)C(=O)C1c1nc2ccccc2o1 (stereo unspecified) ; system DMS-273; GI50 = > 100 µM (inactive)

Measured GI50 (DMS-273), entry O=C(O)[C@H](NS(=O)(=O)c1ccc([N+](=O)[O-])cc1)c1ccccc1 : > 100 µM (inactive)

// molecule CC(=O)O[C@]1(C)CCC2C(C)C(=O)OC2C2C(C)[C@@H](O)CC21 (stereo partly specified) , assay DMS-273, GI50 value: 22.4 µM (inactive)

With DMS-273 as the test system, CC(C)(Br)C1(O)CCCN1C(=O)c1ccccc1 (stereo unspecified) showed GI50 of > 100 µM (inactive)

Tested on DMS-273, the item N#C/C(=C\c1c(Cl)cccc1Cl)c1ccccc1 showed GI50 equal to 3.35 µM (inactive)

# C=C(c1ccccc1)C1(O)CCCCC1N (stereo unspecified) with DMS-273: GI50 is > 100 µM (inactive)

Field GI50 (DMS-273), entry Cc1c2cc[n+](C)cc2c(C)c2c1[nH]c1ccc(Oc3ccccc3)cc12 : 0.387 µM (active)

Let me check: C=COCCCOc1ccccc1 , system DMS-273, measured GI50 is > 100 µM (inactive)

Given the molecule N=C(NNS(=O)(=O)c1ccccc1)Oc1ccc(Cl)cc1 and test system DMS-273, the measured GI50 is > 100 µM (inactive)

The measured GI50 that CC(=O)Oc1ccc2c(=O)c(C(C)=O)coc2c1 showed for DMS-273 is > 100 µM (inactive)

Value sought: GI50, system DMS-273, item Nc1ccc(C(=O)NN2C(=O)C(Cl)C2c2cc(Br)ccc2O)cc1 (stereo unspecified) . Result: 80.4 µM (inactive)

Reported GI50 (DMS-273) for entry O=C1N[C@@H]2CCC[C@@H]2[C@@H]1c1ccc(Cl)cc1 is > 100 µM (inactive)

Response field GI50 (DMS-273) for item COc1ccc(C2C(C(=O)O)=C(COC(C)=O)Oc3cc4c(cc32)OCO4)c(OC)c1 (stereo unspecified) : > 100 µM (inactive)

The molecule O=S(=O)(c1ccccc1)n1cc(C[P+](c2ccccc2)(c2ccccc2)c2ccccc2)c2ccccc21 , when measured on DMS-273, yielded GI50 of 3.21 µM (inactive)

The molecule O=C1C(c2ccc([N+](=O)[O-])cc2)=[N+]([O-])c2ccc([N+](=O)[O-])cc21 , when measured on DMS-273, yielded GI50 of 69.7 µM (inactive)

// molecule Cc1ccc2nc(NC(=O)/C(=N\NC(=S)NN)C3C(=O)NC(=S)NC3=O)sc2c1 , assay DMS-273, GI50 value: > 100 µM (inactive)

Tested on DMS-273, the item COc1cc2c(c(OC)c1OC)[C@@H]1CCCCC[C@@H]1CCC2=O showed GI50 equal to > 49.4 µM (inactive)

# value of GI50, DMS-273, item Nc1nnc(CCC(=O)Nc2cc(Cl)ccc2Cl)n1N = > 100 µM (inactive)

Query O=c1[nH]n2c(=O)cc[nH]c2c1-c1nnns1 on DMS-273; GI50 returned: > 100 µM (inactive)

// returns GI50 for CC(C)(C)OC(=O)NCC(=O)OCc1ccccc1 with DMS-273; value = > 100 µM (inactive)

Per the reported DMS-273 data, CC(CCC(=O)O)c1ccc(Br)cc1 (stereo unspecified) has GI50 of > 100 µM (inactive)

Response field GI50 (DMS-273) for item CCOC(=O)C(=O)Nc1cccc(C)c1C : > 100 µM (inactive)

// molecule CCCCCCCCC(=O)NCCN(CCN)C(=O)CCCCCCCC , assay DMS-273, GI50 value: 2.87 µM (inactive)

Assay DMS-273, sample CN(C)/N=N/c1ccc([N+](=O)[O-])cc1C(N)=O , GI50 read: > 100 µM (inactive)

Item O=C(NNC(=O)c1nsc2ccccc12)c1ccc(Cl)cc1 ; assay system DMS-273; GI50 reported as 8.11 µM (inactive)

Sample COc1cccc2c1c1ccc3c(c1n2C)C(=O)C=CC3=O , system: DMS-273. Its GI50 is 16 µM (inactive)

Observed GI50, DMS-273, O=C(OCCOCBr)c1ccccc1 : > 100 µM (inactive)

# lookup: C/C(=N/NS(=O)(=O)c1ccc([N+](=O)[O-])cc1)c1cccc[n+]1[O-] on DMS-273, GI50 = > 100 µM (inactive)

GI50 for DMS-273 with input c1nc2cscc2c2cscc12 equals > 100 µM (inactive)

Param item: CC(C)C(Nc1c2ccccc2[n+](C)c2ccccc12)C(=O)O (stereo unspecified) ; param system: DMS-273; output GI50: > 100 µM (inactive)

The measured GI50 that CCC1(O)C(=O)OCc2c1cc1n(c2=O)Cc2cc3cc4c(cc3nc2-1)OCO4 (stereo unspecified) showed for DMS-273 is < 0.01 µM (active)

GI50 for DMS-273 with input CC(=O)Nc1ccc(C(=O)N2N=C(C)/C(=C/c3ccccc3O)C2=O)cc1 equals > 100 µM (inactive)

Record CC1(c2cccc3ccccc23)OC(=O)c2ccccc21 (stereo unspecified) has DMS-273 GI50 equal to 10.8 µM (inactive)

* * *

- Test system: TK-10
- protocol: NCI tumour cell line growth inhibition, 48 h
Calls of active or inactive are those of the source. Cut-off read from the data, not from the text of the source: active = GI50 up to about 1.1 µM and inactive = higher.
quantity name: GI50

Bench note, TK-10: CCP(=O)(CC)C(Cl)(Cl)C(O)C(C)(C)C (stereo not given) , GI50 reads > 100 µM (inactive)

// GI50 (TK-10) for CC(=O)c1ccccc1NC(=O)C(=O)C(C(=O)c1ccc2ccccc2c1)C1OC(=O)c2ccccc21 (stereo not given) = 34 µM (inactive)

Readout GI50 for CC(C)(C)OC(=O)NCC(=O)OCc1ccccc1 , test system TK-10, was > 100 µM (inactive)

Record CC(=O)OC1CCC2OOC1O2 (stereo not given) / TK-10, GI50 recorded as > 100 µM (inactive)

Entry COc1cc(Cc2nccc3cc(OC)c(OC)cc23)c(C(C)=O)cc1OC : GI50 on TK-10 = 139 µM (inactive)

Simply: CCN(CC)c1oc(N(CC)CC)c(C(=O)Nc2ccccn2)c(=O)c1C(C)=O , TK-10, GI50 = > 100 µM (inactive)

For the compound COC(=O)Nc1nc2cc(NS(=O)(=O)c3ccc(Cl)cc3)ccc2[nH]1 , the measured GI50 on TK-10 was 2.7 µM (inactive)

Recorded GI50 for CC(C)(C)C(=O)OCC1OC(N=[N+]=[N-])C(OC(=O)C(C)(C)C)C(OC(=O)C(C)(C)C)C1OC(=O)C(C)(C)C (stereo not given) on TK-10 was > 100 µM (inactive)

Field GI50 (system: TK-10) for entry O=C(O)/C(=C\c1ccncc1)c1cccc2ccccc12 = > 100 µM (inactive)

Record COC(=O)Cc1c([C@@H]2Nc3ccccc3[C@H]2CC(=O)OC)[nH]c2ccccc12 ; system TK-10; GI50 = 44.2 µM (inactive)
